- Test system: SN12C renal
- Test method notes: NCI tumour cell line growth inhibition, 48 h
Quantity measured: TGI

Below: 3 molecules and their reported TGI.
[[record]]
molecule = "CSC1=Nc2c(c(C)c(C)n2COC(CO)CO)C2=NC(=O)CC(C)N12 (stereo not drawn)"
data_value = "> 100 µM"

[[record]]
molecule = "CCOC1(OCC)N=C(N)C2(C#N)C3(C(=O)N(C(C)C)N=C3C)C12C#N (stereo not drawn)"
data_value = "> 100 µM"

[[record]]
molecule = "CCOC(=O)C(C(=O)OCC)=C1N[C@H](C(=O)OCC)CS1"
data_value = "> 100 µM"


Fill blank: measured TGI of the molecule CNCCCNC1(c2cc3ccccc3s2)CCCCC1 is ____.
18.4 µM

Fill blank: measured TGI of the molecule COC1=CC(c2ccc[nH]2)=N/C1=C\c1[nH]c(C)c(C(C)=O)c1C is ____.
> 100 µM

Fill blank: measured TGI of the molecule CC(=O)OC1CC2C(C)(C)C(=O)C=C[C@]2(C)C2CCC3(C)C(c4ccoc4)[C@@H](O)[C@H]4O[C@]43[C@]12C (stereo partly drawn) is ____.
34.1 µM

* * *

- Tested on: DU-145 prostate
- Test method notes: NCI tumour cell line growth inhibition, 48 h
Quantity measured: TGI

[[record]]
compound = "C[C@]12CC[C@H]3[C@@H](CCC4=CC(=O)CC[C@@]43C)[C@@H]1CC[C@@H]2C(=O)Nc1ccc([N+](=O)[O-])c(C(F)(F)F)c1"
quantity_measured = "TGI"
data_value = "42.3 µM"

[[record]]
compound = "CC(=O)O[C@H]1CC[C@@]2(C)C(=C[C@H](c3ccc(O)cc3)[C@H]3[C@@H]4CC[C@H](OC(C)=O)[C@@]4(C)CC[C@@H]32)C1"
quantity_measured = "TGI"
data_value = "48.8 µM"

[[record]]
compound = "COc1ccc(-c2nn(-c3cccc(NC(=O)c4cccc(C(F)(F)F)c4)c3)cc2-c2ccncc2)cc1Cl"
quantity_measured = "TGI"
data_value = "> 100 µM"

[[record]]
compound = "N#Cc1cc(N(CCCl)CCCl)c([N+](=O)[O-])cc1[N+](=O)[O-]"
quantity_measured = "TGI"
data_value = "> 100 µM"

[[record]]
compound = "CC[C@@H]1CC[C@@H]2[C@H](CC[C@]3(C)[C@@H](O)CC[C@@H]23)[C@H]1CO"
quantity_measured = "TGI"
data_value = "> 100 µM"

[[record]]
compound = "CCC1c2[nH]c3ccccc3c2C[C@H]2C(=O)NC(CCCCNC(=O)OC(C)(C)C)C(=O)N12 (some centres undefined)"
quantity_measured = "TGI"
data_value = "> 100 µM"

[[record]]
compound = "c1ccc2sc(C3(N4CCC5(CC4)OCCO5)CCCCC3)cc2c1"
quantity_measured = "TGI"
data_value = "> 100 µM"

[[record]]
compound = "CC(C)n1c(=O)[nH]n(-c2ccccc2)c1=O"
quantity_measured = "TGI"
data_value = "> 100 µM"


Fill blank: measured TGI of the compound Cc1coc2c1C(=O)C(=O)c1c-2ccc2c1CCCC2(C)C is ____.
9.9 µM

Fill blank: measured TGI of the compound O=C1C(c2c(O)[nH]c3ccccc23)=Nc2ccc(Br)cc21 is ____.
> 100 µM

Fill blank: measured TGI of the compound CN(C)[C@H]1CC[C@H]2[C@@H]3CCC4C[C@@H](NC(=O)NC(Cc5ccccc5)c5nccs5)CC[C@]4(C)[C@H]3CC[C@]12C (some centres undefined) is ____.
6.67 µM

Fill blank: measured TGI of the compound CC1(C)CCCCCCC2CC2CCCCCC(C)(C)C1=O (centres undefined) is ____.
> 100 µM

Fill blank: measured TGI of the compound Cc1nc2c(O)cc3c4c(n(Cc5ccccc5)c3c2nc1C)C(=O)CCC4 is ____.
> 100 µM

Fill blank: measured TGI of the compound COC(=O)c1cc(C)ccc1C1CN=NC12Cc1cccc(C)c1C2=O (centres undefined) is ____.
> 100 µM

Fill blank: measured TGI of the compound COc1c(O)c(O)c2c(c1O)C(=O)c1cc(C)cc(O)c1C2=O is ____.
> 100 µM

Fill blank: measured TGI of the compound Brc1ccccc1C=NC12CC3CC(CC(C3)C1)C2 is ____.
> 100 µM

Fill blank: measured TGI of the compound CSc1ccc(-c2cc(-c3nc4ccccc4[nH]3)nc(N)c2C#N)cc1 is ____.
66.9 µM

* * *

Readings of GI50 for the listed compounds
- Test system: HCT-116 colon
- Test method notes: NCI tumour cell line growth inhibition, 48 h

Below: 3 compounds and their reported GI50.
[[record]]
compound = "COc1ccc2c(c1)/C(=C\\c1c(Cl)n(C)c3ccccc13)C(=O)N2"
quantity_measured = "GI50"
data_value = "1290 nM"

[[record]]
compound = "CC(=O)OC1Oc2cc(C)c(C)cc2-c2oc(=O)c(-c3ccc(F)cc3)cc21 (stereo not given)"
quantity_measured = "GI50"
data_value = "4230 nM"

[[record]]
compound = "COc1cc(/C=C2\\C(=O)N(c3ccccc3)c3ccccc32)cc(OC)c1OC"
quantity_measured = "GI50"
data_value = "3470 nM"


Fill blank: measured GI50 of the compound CCN(CC)CCCC(Cc1ccccc1)Nc1c2ccc(Cl)cc2nc2ccc(OC)cc12 (stereo not given) is ____.
1950 nM

Fill blank: measured GI50 of the compound Clc1ccc(C2=NN[C@H](c3cn(-c4ccccc4)nc3-c3ccccc3)C2)cc1 is ____.
2030 nM

* * *

Readings of TGI for the listed compounds
- System: SNB-19 CNS
- Test method notes: NCI tumour cell line growth inhibition, 48 h

[[record]]
compound = "O=C(NCCNc1nccc(-c2c(-c3ccc(F)cc3)nc3sccn23)n1)c1ccccc1"
study_target = "SNB-19 CNS"
quantity_measured = "TGI"
data_value = "> 100 µM"

[[record]]
compound = "COC(=O)c1cc(C)ccc1C1CN=NC12Cc1cccc(C)c1C2=O (centres undefined)"
study_target = "SNB-19 CNS"
quantity_measured = "TGI"
data_value = "> 100 µM"

[[record]]
compound = "CC(=O)OC[C@@]1(C)[C@@H]2[C@@H]3[C@@]4(CO[C@]3(C)C(=O)[C@@]3(O)C[C@H](C)[C@H](OC(C)=O)[C@@H]3[C@H]4OC(C)=O)[C@H](OC(=O)c3ccccc3)C[C@@H]21"
study_target = "SNB-19 CNS"
quantity_measured = "TGI"
data_value = "> 100 µM"


API: value(readout=TGI, system=SNB-19 CNS) for record O=C1CCC(N2Cc3c(C#CCCCNC(=O)c4cc5c(o4)C(=O)c4ccccc4C5=O)cccc3C2=O)C(=O)N1 (centres undefined)
8.35 µM

* * *

- Test system: SW-620 colon
- Test method notes: NCI tumour cell line growth inhibition, 48 h; in the data active means GI50 below about 0.43 µM; inactive means the rest
Where a SMILES comes first, the peptide text is derived from it. [ ]: non-standard residue; d: D form. The star is where a group is joined. NMeF = CN[C@@H](Cc1ccccc1)C(=O)O; NMeV = CN[C@H](C(=O)O)C(C)C; Boc = CC(C)(C)OC(=O)*; OBn = c1ccc(CO*)cc1
Tick one outcome: active, inactive

Example cases with answers are listed next.
[[record]]
compound = "Oc1ccc(-c2cn3cc(Cl)sc3n2)cc1"
category_label = "inactive"

[[record]]
compound = "CCC[CH2][Sn]1([CH2]CCC)[O]CC(CN2CCOCC2)[O]1 (stereo not drawn)"
category_label = "inactive"


For Clc1ccc(C2=NN[C@H](c3cn(-c4ccccc4)nc3-c3ccccc3)C2)cc1 , which call appears in the assay record?
inactive

For C=Cc1cc(OC)c2c(c1)c(=O)oc1c2cc(OC)c2c(O)ccc(C3OC(C)C(O)C(C)(O)C3O)c21 (stereo not drawn) , which call appears in the assay record?
active

For NC1=CC(=O)c2nc3ccccc3c3ccnc1c23 , which call appears in the assay record?
inactive

For COc1ccc(-c2nc(N3CCOCC3)c3sc(CN(C)c4ncc(C(=O)NO)cn4)cc3n2)cn1 , which call appears in the assay record?
active

For O=C(Nc1ccc(OCc2nnc(-c3ccccc3)o2)c(F)c1)Nc1ccc(Cl)c(C(F)(F)F)c1 , which call appears in the assay record?
inactive

For Cc1sc(NC2=NC(=O)/C(=C\c3ccccc3)S2)nc1-c1nc(NC2=NC(=O)/C(=C\c3ccccc3)S2)sc1C , which call appears in the assay record?
inactive

For COc1ccc2cc(Cn3cc[n+](Cc4ccc5ccccc5c4)c3)ccc2c1 , which call appears in the assay record?
inactive

For O=C(Cc1ccccc1)NC(c1ccc(Cl)cc1)c1c(O)ccc2ccccc12 (stereo not drawn) , which call appears in the assay record?
inactive

For CCOC(=O)c1c(Cl)c2c(n1Cc1cccc(OC)c1)-c1oncc1CC2 , which call appears in the assay record?
inactive

For S=C(c1ccc2c(c1)OCO2)N1CCN(c2cccc(Cl)c2)CC1 , which call appears in the assay record?
active

For CCN(CC)CCCCNc1ncc2cc(-c3cc(OC)cc(OC)c3)c(NC(=O)NC(C)(C)C)nc2n1 , which call appears in the assay record?
inactive

For COc1ccc(CCN2CCC(Nc3nc4ccccc4n3Cc3ccc(F)cc3)CC2)cc1 , which call appears in the assay record?
inactive

For CC(C)[C@@H](C(=O)N1CCC[C@H]1C(=O)OCc1ccccc1)N(C)C(=O)[C@H](C(C)C)N(C)C(=O)[C@H](Cc1ccccc1)N(C)C(=O)[C@H](NC(=O)OC(C)(C)C)C(C)C (Boc-[dV][NMeF][NMeV][NMeV]P-OBn) , which call appears in the assay record?
inactive

For Cn1ccnc1C(=O)/C=C/c1ccc(CC(=O)Nc2ccc(F)cc2)cc1 , which call appears in the assay record?
inactive

For C=C(C)[C@@H]1CC[C@]2(C(=O)O)CC[C@]3(C)[C@H](CC[C@@H]4[C@@]5(C)C/C(=C/c6ccc(OC)cc6)C(=O)C(C)(C)[C@@H]5CC[C@]43C)[C@@H]12 , which call appears in the assay record?
inactive

For Cc1ccc(NC2=C(Cl)C(=O)N(Cc3ccccc3)C2=O)cc1Cl , which call appears in the assay record?
inactive
